Stoichiometry values by entry
- measured target: T1, genetically modified and chemically inactivated C. difficile toxoid A (Clostridium difficile, UniProt P16154 2-2710)
- T1 construct: also called TxdA; the toxoid
- experiment description: ITC
Lab note: jot down the number only; don't add units.

Recorded Stoichiometry, per entry:
binder="hCDIFA-56 (antibody, V domains shown) VH: QVQLVQSGAEVKKPGASVKVSCKVSGYTLPELSMHWVRQAPGKGLEWMGGFDPEDDDTIYAQKFQGRVTMTEDTSTDTAYLELSSLRSEDTAVYYCATDSSPLYNENYFGSAAFDVWGQGTTVTVSS VL: AIRMTQSPSSLSASVGDRVTITCRASQGISTYLAWYQQKPGKAPKLLLYAASRLESGVPSRFSGSGSGTDYTLTINSLQPEDFATYYCQQYDRMPRTFGQGTKVEIKR" measured_property=Stoichiometry assay_value=0.78
binder="hCDIFA-48 (antibody, V domains shown) VH: QVQLVQSGAEVKKPGASVKVSCKASGYTFTTYAMHWVRQAPGHRLEWMGWINPVNGNSKHSQNFQGRVTITRDTSASTVYMELSSLRSEDTAVYYCARDTSSGVILANNFDYWGQGTLVTVSS VL: DIVMTQSPATLSLSPGERATLSCRASQSVDSYLTWYQQKPGQAPRLLIYDSSNRATGIPARFSGSGSGTDFTLTISSLEPEDFAVYYCHQRSNWPNTFGQGTKVEIKR" measured_property=Stoichiometry assay_value=0.77
binder="hCDIFA-33 (antibody, V domains shown) VH: QVQLVQSGGGLVQPGGSLRLSCVASGFTFSSYAMTWVRQAPGMGLEWVSTISLSGSTIYYADSVKGRFTISRDNPKNTLYLQMNSLRAEDTAVYYCAEGQGAFDFWGQGTMVTVSS VL: NFMLTQPPSASGTPGQRVTISCSGSTSNIGGNTVNWYQQLPGTAPKLLIYSNIQRPSGVPDRFSGSKSGTSASLAIRGLRSEDEADYYCSTWDDSRKGVVFGGGTKLTVLG" measured_property=Stoichiometry assay_value=0.83

Short answer for hCDIFA-46 (antibody, V domains shown) VH: EVQLVESGGGLVQPGGSLRLSCAASGFTVSRNYMTWVRQAPGKGLEWVSVIYSGGSTYHADSVKGRFTISRDNSKNTLNLQMSSLRAEDTAVYYCARPCPGSSISCDYNMDVWGQGTTVTVSS VL: QAVVTQPASVSGSPGQSITISCTGTSSDVGGYNYVSWYQQHPGKAPKLIIYEVSNRPSGVSNRFSGSKSGNTASLTISGLQAEDEADYYCTSYTSSSMIDVFGTGTKLTVLG : Stoichiometry was 1

The recorded Stoichiometry for hCDIFA-29 (antibody, V domains shown) VH: EVQLLESGAEVKKPGASIRVSCKASGHSFTDSFTDYYFHWVRQAPGQGLEWMGMINPSVGSTNYAQKFQGRVTLTRDTSTHTVYMELSSLRSEDTAVYFCARDPWFCSRGTSCYYFGLWGQGTLVTVSS VL: DIQLTQSPSSLSASVGDSVTITCRASQSISTYLNWYQQKPGKAPKLLIYDASSLLSGVPSRFSGGGSGTDFTLTISSLQPEDFATYYCQQSDISPPVFGRGTKVEIKR is 9.2

Ref: patent US20230218735A1
